Target: KRas^G12R (Homo sapiens, UniProt P01116, G12R)
Construct: Biotinylated KRas (corresponding to amino acids 1-169, produced at Accelegan Inc.); biotin (biotinylated); purchased Accelegan Inc
Sequence (P01116 1-169 isoform P01116-2 G12R): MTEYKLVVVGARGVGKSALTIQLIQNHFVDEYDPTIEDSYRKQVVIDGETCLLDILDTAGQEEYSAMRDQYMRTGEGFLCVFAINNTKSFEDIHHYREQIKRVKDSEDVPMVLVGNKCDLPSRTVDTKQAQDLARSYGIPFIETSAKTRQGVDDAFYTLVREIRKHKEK
Assay: KRas binding assay (TR-FRET tracer displacement), KRas G12R
Measurement Kind: IC50 (nM)

Here's what some known entries look like.
CCc1c(F)ccc2cc(O)cc(-c3ncc4c(N5CC6CCC(C5)C6CC(N)=O)nc(OC[C@@]56CCCN5C[C@H](F)C6)nc4c3F)c12 (stereo partly drawn) [Example 859]	13
CCc1c(F)ccc2cc(O)cc(-c3ncc4c(N5CCCn6nc(C(=O)N(C)C)cc6C5)nc(N5CC(N)C5)nc4c3F)c12 [Example 529]	36
O=S1(=O)NCC2(CCCN(c3nc(OCC45CCCN4CCC5)nc4c(F)c(-c5cccc6cccc(CO)c56)ncc34)C2)N1 (stereo not drawn) [Example 906]	646
Cc1cc2[nH]ncc2c(-c2ncc3c(N4CCC[C@]5(C4)NC(=O)NC5=O)nc(OC[C@@]45CCCN4C[C@H](F)C5)nc3c2F)c1C [Example 731]	10
CCc1c(F)ccc2cc(O)cc(-c3ncc4c(N5CC6CCC(CCC(N)=O)(C6)C5)nc(OC[C@@]56CCCN5C[C@H](F)C6)nc4c3F)c12 (stereo partly drawn) [Example 910]	9
CCc1c(F)ccc2cc(O)cc(-c3ncc4c(N5CCC[C@@](C)(O)C5)nc(OC[C@@]56CCCN5[C@@H](COC)CC6)nc4c3F)c12 [Example 886]	4

P = CCc1c(F)ccc2cc(O)cc(-c3ncc4c(N5CC[C@H]6C(=O)O[C@H]6C5)nc(OC[C@@]56CCCN5C[C@H](F)C6)nc4c3F)c12 [Example 802]
Q = CCc1c(F)ccc2cc(O)cc(-c3ncc4c(NCc5cc(C(=O)N(C)C)n(CC#N)n5)nc(OC[C@@]56CCCN5C[C@H](F)C6)nc4c3F)c12 [Example 658]
Request: Quick check, higher IC50 between P and Q ? // return label of chosen record
Response: Q

A = CCc1c(F)ccc2cc3[nH]ncc3c(-c3ncc4c(N5C[C@@H]6C[C@H](C5)[C@H](O)C6)nc(OC[C@@]56CCCN5C[C@H](F)C6)nc4c3F)c12 [Example 825]
B = CN(C)C(=O)c1cc2n(n1)CCCN(c1nc(OCC34CCCN3CCC4)nc3c(F)c(-c4cc(O)cc(Cl)c4C4CC4)ncc13)C2 [Example 744]
C = C=C1[C@@H]2CC[C@H]1CN(c1nc(OC[C@@]34CCCN3C[C@H](F)C4)nc3c(F)c(-c4cc(O)cc5ccc(F)c(CC)c45)ncc13)C2 [Example 849]
Request: Put the molecules in ascending order of IC50. As an answer, provide the labels arranged in the order called for.
Response: B, A, C
(B: 2 nM, A: 3 nM, C: 24 nM)

a = C#Cc1c(F)ccc2cc(O)cc(-c3ncc4c(N5CCC[C@@](C)(O)C5)nc(OC[C@]56CCCN5[C@H](CO)CC6)nc4c3F)c12 [Example 814]
b = CCc1c(F)ccc2cc(O)cc(-c3ncc4c(NCc5cc(C(=O)N(C)C)n([C@H]6C[C@@H](O)C6)n5)nc(OC[C@@]56CCCN5C[C@H](F)C6)nc4c3F)c12 [Example 681]
c = CCc1c(F)ccc2cc(O)cc(-c3ncc4c(N5CCC[C@@](C)(O)C5)nc(OCC56CC5CCN(C)C6)nc4c3F)c12 (stereo partly drawn) [Example 701]
Request: List by increasing IC50. # output: labels, in the requested order
Response: a, c, b

I = CCc1c(F)ccc2cc(O)cc(-c3ncc4c(N5CCCCC(n6ccnn6)C5)nc(OC[C@@]56CCCN5C[C@H](F)C6)nc4c3F)c12 (stereo partly drawn) [Example 830]
II = Oc1cc(-c2ncc3c(N4C[C@@H]5C[C@H](C4)[C@H](O)C5)nc(OC[C@@]45CCCN4C[C@H](F)C5)nc3c2F)c2ccccc2c1F [Example 750]
III = CCc1c(F)ccc2cc(O)cc(-c3ncc4c(N5CCC(Cc6ccn(C)n6)C5)nc(OC[C@@]56CCCN5C[C@H](F)C6)nc4c3F)c12 (stereo partly drawn) [Example 611]
Request: Ascending by IC50, please: list the molecules accordingly. List the labels, following the order given in the request.
Response: I, II, III
(I: 12 nM, II: 42 nM, III: 127 nM)
